# assay_notes: self-splicing fitness, log relative to wild type (ln ratio); higher = more splicing; Tetrahymena group I intron in knt gene, E. coli kanamycin selection, DiMSum; sequences stand for … in CUCUCU…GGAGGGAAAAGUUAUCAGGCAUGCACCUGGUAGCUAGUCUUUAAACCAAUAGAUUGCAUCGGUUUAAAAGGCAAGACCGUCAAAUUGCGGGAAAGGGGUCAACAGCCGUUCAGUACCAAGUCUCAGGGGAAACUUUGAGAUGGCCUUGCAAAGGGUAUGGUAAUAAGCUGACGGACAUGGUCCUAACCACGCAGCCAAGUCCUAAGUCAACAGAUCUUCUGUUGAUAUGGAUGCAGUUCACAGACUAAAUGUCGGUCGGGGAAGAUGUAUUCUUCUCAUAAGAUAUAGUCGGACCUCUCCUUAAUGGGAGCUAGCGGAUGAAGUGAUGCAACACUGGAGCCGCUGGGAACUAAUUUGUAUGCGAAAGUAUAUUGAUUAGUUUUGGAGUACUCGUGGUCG;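 note: selection with 25 µg/mL kanamycin versus none on LB agar overnight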
# condition_details: 37 °C
# label = Yes if self-splicing fitness (ln) >= -2 else No

Reference set (3 entries):
primary_sequence	discrete_label
GUCUAGCAAUAUUACGCAGC	Yes
AGUAAGCAAUAUUACGCCUA	Yes
UACGAGCAAUAUUACGGCAA	Yes

Exercise: Kindly determine if self-splicing fitness (ln) recorded for UAAAAGCAAUAUUACGGUUC is above or exactly -2.
Solution: No

Exercise: And what about the sequence UUCAAGCAAUAUUACGGGUC ?
Solution: Yes

Exercise: Also CUUCAGCAAUAUUACGCGAU ?
Solution: Yes

Exercise: Same again, this time with GUCUAGCAAUAUUACGGAGC
Solution: Yes

Exercise: Same again, this time with GAUUAGCAAUAUUACGGGCG
Solution: Yes

Exercise: Query GUUAAGCAAUAUUACGAACG next
Solution: Yes

====

# assay_notes: self-splicing fitness, log relative to wild type (ln ratio); higher = more splicing; Tetrahymena group I intron in knt gene, E. coli kanamycin selection, DiMSum; sequences stand for … in CUCUCU…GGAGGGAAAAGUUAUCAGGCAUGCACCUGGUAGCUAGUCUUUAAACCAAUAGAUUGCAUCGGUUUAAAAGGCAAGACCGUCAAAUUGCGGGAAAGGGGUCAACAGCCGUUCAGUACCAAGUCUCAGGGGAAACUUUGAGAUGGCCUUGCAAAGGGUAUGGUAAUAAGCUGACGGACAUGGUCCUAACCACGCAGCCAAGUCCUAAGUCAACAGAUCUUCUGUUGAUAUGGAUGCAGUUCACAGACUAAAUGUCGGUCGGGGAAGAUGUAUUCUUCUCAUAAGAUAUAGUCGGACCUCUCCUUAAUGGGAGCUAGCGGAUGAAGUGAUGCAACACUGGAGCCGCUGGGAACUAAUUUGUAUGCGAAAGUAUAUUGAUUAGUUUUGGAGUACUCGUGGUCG
# condition_details: 37 °C
Note to self: values exactly at -2 are 1. So self-splicing fitness (ln) at or above -2 is 1, below is 0.

primary_sequence	discrete_label
GUUGAGCAAUAUUACGGGCG	1

Exercise: Is self-splicing fitness (ln) at least -2? Consider GUCGAGCAAUAUUACGAUGC
Solution: 1

Exercise: What about this sequence? ACACAGCAAUAUUACGAAGU
Solution: 0

Exercise: Try this sequence too: UCUCAGCAAUAUUACGUGAU
Solution: 1

Exercise: Same lookup for UUAAAGCAAUAUUACGUGUC , please.
Solution: 1

Exercise: Please answer likewise for AGCGAGCAAUAUUACGCCCG
Solution: 1

Exercise: Likewise for UAGAAGCAAUAUUACGGUCC ?
Solution: 1

Exercise: Entry GUAUAGCAAUAUUACGGCAU please
Solution: 1

Exercise: Same lookup for AACAAGCAAUAUUACGGCCG , please.
Solution: 1

Exercise: What do you get for UCCAAGCAAUAUUACGCAAG ?
Solution: 0

Exercise: Next record, please: AGCCAGCAAUAUUACGUGUC
Solution: 1
